tested on: Staphylococcus aureus; experiment: Antibacterial activity against methicillin resistant Staphylococcus aureus NRS 193 assessed as bacterial growth inhibition incubated for 18 to 24 hrs by broth microdilution method; format: functional; conditions: time 18-24 hrs

compound	MIC [µg/mL]
C[C@@H](O)[C@H]1C(=O)N2C(C(=O)O)=C(S[C@@H]3CN[C@H](C(=O)N(C)C)C3)[C@H](C)[C@H]12 [MEROPENEM]	64
CCN1C(=O)[C@@]2(CN(C)C3(c4cc(OC)ccc4-n4c3nc3ccccc3c4=O)C2(C#N)C#N)c2ccccc21 (stereo not given in full)	0.5
CCN1C(=O)[C@@]2(CN(C)C3(c4cc(Br)ccc4-n4c3nc3ccccc3c4=O)C2(C#N)C#N)c2ccccc21 (stereo not given in full)	0.25
CCN1C(=O)[C@@]2(CN(C)C3(c4cc(Cl)ccc4-n4c3nc3ccccc3c4=O)C2(C#N)C#N)c2ccccc21 (stereo not given in full)	0.25
C[C@H]1COc2c(N3CCN(C)CC3)c(F)cc3c(=O)c(C(=O)O)cn1c23 [LEVOFLOXACIN ANHYDROUS]	32
